Reference source for all entries: patent US10835549B2

METHOD: Flow cytometric quantification of intracellular uptake and retention
COND: human
No end group written: not given here.
PROPERTY_LABEL: half-life at 10 μM (h)
Answer in h, number only, no unit symbol.

### Prompt Need half-life at 10 μM, item YARAAARQARAKALARQLGVAA [MK2i]
### Response 98.4
